Measured values drawn from patent US20250296960A1 for this set.

# target-system: human GLP-1 receptor (GLP-1R), expressed on CHO-K1 cells (human, UniProt P43220 24-463)
# assay: cell-based or functional assay
Numbered stars: 1 amine (or outer) side, 2 acyl side, 3 side chain; on linkers, the order of the positions; unused ones are H or OH. Square brackets hold non-standard residues; d marks the D form. Primed or numbered codes have the meaning given here. Side chains are listed from the residue outwards. Ends that are not written are not given here. * marks the point of attachment. C18″ = C18 fatty acid moiety (of 2OEG-γGlu-C18, K*); γGlu = O=C(O)[C@H](CCC(=O)[*:2])N[*:1]; AEEA = NCCOCCOCC(=O)O; Aib = CC(C)(N)C(=O)O
For each entry below, report its Relative % to native ligand value.
Form entry: value (%) — number only.

Summary for this binder, Y[Aib]QGTFTSDYSK([AEEA-AEEA-γGlu-C18″])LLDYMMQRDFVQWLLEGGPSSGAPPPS-NH2 [Peptide No. 5-3D] : Relative % to native ligand is 119

Summary for this binder, Y[Aib]QGTFTSDYSKYLDYK([AEEA-AEEA-γGlu-C18″])MARDFVQWLIEGGPSSGAPPPS-NH2 [Peptide No. 5-1F] : Relative % to native ligand is 61

Summary for this binder, Y[Aib]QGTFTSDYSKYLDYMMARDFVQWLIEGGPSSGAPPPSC-NH2 (not fully specified (residue 40)) [Peptide No. 5-1A] : Relative % to native ligand is 187

Summary for this binder, Y[Aib]QGTFTSDYSK([AEEA-AEEA-γGlu-C18″])YLDYMMARDFVQWLIEGGPSSGAPPPS-NH2 [Peptide No. 5-1D] : Relative % to native ligand is 151

Summary for this binder, Y[Aib]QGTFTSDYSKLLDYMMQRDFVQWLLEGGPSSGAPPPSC-NH2 [Peptide No. 5-3] : Relative % to native ligand is 638
